# Assay System: HLA-A*0206 (human)
# Stated Conditions: remark: other sources report otherwise
pIC50: −log10 of the molar value.
Value Type: pIC50

(I) SVGCTGAVPV [peptide 1418.35 (HuK2.11.V10)]
(II) SLHLLSNDMCV [peptide 1418.66 (HuK2.175.V11)]
(III) HLLSNDMCARV [peptide 1418.67 (HuK2.177.V11)]
(IV) SLQCVSLHV [peptide 1418.19 (HuK2.170.V9)]
*Q* Ranking criterion: pIC50, increasing numeric value. Items: as listed above. Please list the labels according to the requested order.
*A* IV, II, I, III
(IV: 5.39, II: 5.64, I: 6.26, III: 7.43)
